Test system: CCRIS mutagenicity, Ames/micronucleus/aberration tests
Protocol Description: CCRIS mutagenicity studies
Run Conditions: Test System: AMES SALMONELLA TYPHIMURIUM; Strain/Indicator: YG1026; Metabolic Activation: RAT, LIVER, S-9, PCB; Method: PREINCUBATION
Active and inactive are the calls of the source. How the calls were made is not given here.
Classes used: class 1 for active, class 0 for inactive

[
  {
    "Molecular String": "Nc1ncnc2nc(-c3ccc([N+](=O)[O-])cc3)[nH]c12",
    "Test Target": "CCRIS mutagenicity, Ames/micronucleus/aberration tests",
    "Class Label": "class 1"
  },
  {
    "Molecular String": "O=[N+]([O-])c1ccc(Nc2ncnc3nc[nH]c23)cc1",
    "Test Target": "CCRIS mutagenicity, Ames/micronucleus/aberration tests",
    "Class Label": "class 0"
  },
  {
    "Molecular String": "Nc1nc(-c2ccc([N+](=O)[O-])cc2)nc2c1ncn2-c1ccc([N+](=O)[O-])cc1",
    "Test Target": "CCRIS mutagenicity, Ames/micronucleus/aberration tests",
    "Class Label": "class 1"
  },
  {
    "Molecular String": "O=[N+]([O-])c1ccc(CNc2ncnc3nc[nH]c23)cc1",
    "Test Target": "CCRIS mutagenicity, Ames/micronucleus/aberration tests",
    "Class Label": "class 0"
  }
]

---

Tested on: CCRIS mutagenicity, Ames/micronucleus/aberration tests
Protocol Description: CCRIS mutagenicity studies
Run Conditions: Test System: MOUSE LYMPHOMA; Strain/Indicator: L5178Y (TK+/TK-); Metabolic Activation: RAT, LIVER, S-9, AROCLOR 1254; Method: SUSPENSION/PLATE
Activity calls are given as the source filed them. No rule for the calls is given here.
Classes used: active, inactive

[
  {
    "Molecule": "C=C(C)[C@H]1CC=C(C)CC1",
    "Class Label": "active"
  },
  {
    "Molecule": "CC(C)N=C=NC(C)C",
    "Class Label": "active"
  },
  {
    "Molecule": "Nc1ccc([N+](=O)[O-])cc1N",
    "Class Label": "active"
  },
  {
    "Molecule": "O=C1C=CC(=O)N1c1ccc(Cc2ccc(N3C(=O)C=CC3=O)cc2)cc1",
    "Class Label": "active"
  },
  {
    "Molecule": "Brc1c(Br)c(Br)c(Oc2c(Br)c(Br)c(Br)c(Br)c2Br)c(Br)c1Br",
    "Class Label": "inactive"
  },
  {
    "Molecule": "CN(C)C(=O)Cl",
    "Class Label": "active"
  },
  {
    "Molecule": "C[C@@H]1Cc2c(Cl)cc(C(=O)NC(Cc3ccccc3)C(=O)O)c(O)c2C(=O)O1 (stereo partly drawn)",
    "Class Label": "inactive"
  },
  {
    "Molecule": "CCC/C=N/O",
    "Class Label": "inactive"
  },
  {
    "Molecule": "O=[N+]([O-])c1ccc2[nH]ncc2c1",
    "Class Label": "inactive"
  },
  {
    "Molecule": "O=c1[nH][nH]c2ccccc12",
    "Class Label": "inactive"
  },
  {
    "Molecule": "Cc1cc(-c2cc(C)c(N)c(C)c2)cc(C)c1N",
    "Class Label": "inactive"
  },
  {
    "Molecule": "CN(Cc1cnc2nc(N)nc(N)c2n1)c1ccc(C(=O)N[C@@H](CCC(=O)O)C(=O)O)cc1",
    "Class Label": "active"
  },
  {
    "Molecule": "CCCCN(CCC)N=O",
    "Class Label": "active"
  },
  {
    "Molecule": "Cc1c(N=C=O)cccc1N=C=O",
    "Class Label": "active"
  },
  {
    "Molecule": "CCCCC(CC)COC(=O)c1ccccc1C(=O)OCC(CC)CCCC (stereo not drawn)",
    "Class Label": "active"
  },
  {
    "Molecule": "CCCCCCCCC=O",
    "Class Label": "inactive"
  },
  {
    "Molecule": "Nc1c(Oc2ccccc2)cc(O)c2c1C(=O)c1ccccc1C2=O",
    "Class Label": "inactive"
  },
  {
    "Molecule": "CCCCCCCCCCCC(=O)OOC(=O)CCCCCCCCCCC",
    "Class Label": "inactive"
  },
  {
    "Molecule": "CC(Cc1ccc(O)c(O)c1)C(C)Cc1ccc(O)c(O)c1 (stereo not drawn)",
    "Class Label": "inactive"
  },
  {
    "Molecule": "Nc1ccn([C@@H]2C=C(CO)[C@@H](O)[C@H]2O)c(=O)n1",
    "Class Label": "active"
  },
  {
    "Molecule": "CC1=Nc2ccccc2C1(C)C",
    "Class Label": "active"
  },
  {
    "Molecule": "Cc1ccc2nc(-c3ccc(N)cc3)sc2c1",
    "Class Label": "active"
  },
  {
    "Molecule": "CS(=O)(=O)OCCCCOS(C)(=O)=O",
    "Class Label": "active"
  },
  {
    "Molecule": "c1ccc2c(c1)c1cccc3ccc4cccc2c4c31",
    "Class Label": "active"
  },
  {
    "Molecule": "c1ccc2cc3ccccc3cc2c1",
    "Class Label": "active"
  },
  {
    "Molecule": "Nc1ccccc1C(=O)O",
    "Class Label": "active"
  },
  {
    "Molecule": "CC(C)(C#N)N=NC(C)(C)C#N",
    "Class Label": "inactive"
  },
  {
    "Molecule": "CCCCB(CCCC)CCCC",
    "Class Label": "inactive"
  }
]

---

Test system: CCRIS mutagenicity, Ames/micronucleus/aberration tests
Protocol Description: CCRIS mutagenicity studies
Run Conditions: Test System: AMES SALMONELLA TYPHIMURIUM; Strain/Indicator: TA100; Metabolic Activation: HAMSTER, LIVER, S-9, AROCLOR 1254 (30%); Method: PREINCUBATION
The source made the active and inactive calls. The rule behind the calls is not given here.
Classes used: 1.0 (active), 0.0 (inactive)

[
  {
    "Molecule": "COP(=O)(OC)OC",
    "Test Target": "CCRIS mutagenicity, Ames/micronucleus/aberration tests",
    "Class Label": 1.0
  },
  {
    "Molecule": "CC(C)(C)c1cc(O)ccc1O",
    "Test Target": "CCRIS mutagenicity, Ames/micronucleus/aberration tests",
    "Class Label": 0.0
  },
  {
    "Molecule": "[CH3][Hg+]",
    "Test Target": "CCRIS mutagenicity, Ames/micronucleus/aberration tests",
    "Class Label": 0.0
  },
  {
    "Molecule": "CCCCNC(=O)n1c(NC(=O)OC)nc2ccccc21",
    "Test Target": "CCRIS mutagenicity, Ames/micronucleus/aberration tests",
    "Class Label": 0.0
  },
  {
    "Molecule": "CCCCC(CC)COCCCN (stereo not given)",
    "Test Target": "CCRIS mutagenicity, Ames/micronucleus/aberration tests",
    "Class Label": 0.0
  },
  {
    "Molecule": "CN1CCC(CN2c3ccccc3Sc3ccccc32)C1 (stereo not given)",
    "Test Target": "CCRIS mutagenicity, Ames/micronucleus/aberration tests",
    "Class Label": 0.0
  },
  {
    "Molecule": "CCN(CC)c1ccc(N=O)c(O)c1",
    "Test Target": "CCRIS mutagenicity, Ames/micronucleus/aberration tests",
    "Class Label": 0.0
  },
  {
    "Molecule": "FCC1CO1 (stereo not given)",
    "Test Target": "CCRIS mutagenicity, Ames/micronucleus/aberration tests",
    "Class Label": 1.0
  },
  {
    "Molecule": "Nc1ccccc1C(=O)OC/C=C/c1ccccc1",
    "Test Target": "CCRIS mutagenicity, Ames/micronucleus/aberration tests",
    "Class Label": 0.0
  },
  {
    "Molecule": "CCC1NC(=O)c2cc(S(N)(=O)=O)c(Cl)cc2N1 (stereo not given)",
    "Test Target": "CCRIS mutagenicity, Ames/micronucleus/aberration tests",
    "Class Label": 0.0
  },
  {
    "Molecule": "Clc1cccc(C(Cl)(Cl)Cl)n1",
    "Test Target": "CCRIS mutagenicity, Ames/micronucleus/aberration tests",
    "Class Label": 1.0
  },
  {
    "Molecule": "C[C@](N)(Cc1ccc(O)c(O)c1)C(=O)O",
    "Test Target": "CCRIS mutagenicity, Ames/micronucleus/aberration tests",
    "Class Label": 0.0
  },
  {
    "Molecule": "Cc1cc(-c2cc(C)c(N)c(C)c2)cc(C)c1N",
    "Test Target": "CCRIS mutagenicity, Ames/micronucleus/aberration tests",
    "Class Label": 0.0
  },
  {
    "Molecule": "O=C(Cl)C(Cl)Cl",
    "Test Target": "CCRIS mutagenicity, Ames/micronucleus/aberration tests",
    "Class Label": 0.0
  },
  {
    "Molecule": "c1ccc2[nH]c(-c3cscn3)nc2c1",
    "Test Target": "CCRIS mutagenicity, Ames/micronucleus/aberration tests",
    "Class Label": 0.0
  }
]

Sourced from PubChem BioAssay AID1259407
